test.protocol: PK analysis of [MPh-IR+Ond-PR2] in the Phase 2A study (24-hour blood PK samples, Day 1 and Day 14)
settings: human, in vivo, Tmax, Day 14; mean
reported.metric: Tmax (h)
Your answer should be a plain number; it is taken to be in h.

Exercise: Output measured Tmax for this item: COC(=O)C(c1ccccc1)C1CCCCN1 (stereo not shown) [Methylphenidate, methylphenidate]
Solution: 1.7

====

test.protocol: PK analysis of [MPh-IR+Ond-PR2] in the Phase 2A study (24-hour blood PK samples, Day 1 and Day 14)
settings: human, in vivo, AUC (0-inf), Day 14; mean
Description: Ond-PR2 is a bead formulation prepared from ondansetron as the active pharmaceutical ingredient (API). MPh-IR is an immediate-release generic formulation of methylphenidate. [MPh-IR+Ond-PR2] is a single encapsulated dosage form consisting of MPh-IR and Ond-PR2 as Components 1 and 2, respectively. […]
reported.metric: AUC(0-inf) (ng·h/mL)
Could you give me the number in ng·h/mL? Just the number is fine.

Exercise: Annotate the compound COC(=O)C(c1ccccc1)C1CCCCN1 (stereo not shown) [Methylphenidate, methylphenidate] with its measured AUC(0-inf).
Solution: 23.4

====

compounds and their reported Cmax
test.protocol: clinical
settings: human, in vivo, po
The reply should be a number in ng/mL, with the unit left off.

Cc1nccn1CC1CCc2c(c3ccccc3n2C)C1=O (centres unmarked) [Ondansetron, ondansetron]	11.2

Exercise: Give a short answer stating reported Cmax for COC(=O)C(c1ccccc1)C1CCCCN1 (centres unmarked) [Methylphenidate, methylphenidate] .
Solution: 4

====

test.protocol: PK analysis of [MPh-IR+Ond-PR2] in the Phase 2A study (24-hour blood PK samples, Day 1 and Day 14)
settings: human, in vivo, Tmax, Day 1; mean
reported.metric: Tmax (h)
Respond with the bare value in h.

Exercise: Give Tmax for the following compound: COC(=O)C(c1ccccc1)C1CCCCN1 (stereo not shown) [Methylphenidate, methylphenidate]
Solution: 1.9
